MEASUREMENT_TARGET: Follistatin-related protein 3 (Homo sapiens) (UniProt O95633)
Sequence (O95633 whole entry, looked up): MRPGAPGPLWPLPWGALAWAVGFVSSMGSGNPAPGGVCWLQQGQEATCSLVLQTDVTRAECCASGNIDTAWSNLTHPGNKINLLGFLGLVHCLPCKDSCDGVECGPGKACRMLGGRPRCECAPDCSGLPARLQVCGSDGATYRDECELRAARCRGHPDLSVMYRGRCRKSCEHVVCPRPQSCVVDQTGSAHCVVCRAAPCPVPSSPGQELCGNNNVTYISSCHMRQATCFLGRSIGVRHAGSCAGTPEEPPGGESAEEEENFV
PROCEDURE_DETAILS: FSTL3 binders on small-molecule microarrays, primary screen, biochemical, small-molecule microarray, 635 nm fluorescence (AID 1105);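 note: score merges emission near 667 nm and signal to noise per printed spot across three slides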
CONDITION_DETAILS: FSTL3 binding, higher = more signal
Answer criterion not met if composite z-score is under 1, and criterion met if it is 1 or more.

See these solved cases before continuing.
COMPOUND	MEASUREMENT_TARGET	LABEL_VALUE
C=CCC(OC(C)=O)[C@@H]1[C@@H](N(Cc2cccc3ccccc23)C(=O)Cc2ccc(OC)cc2)c2cc(OCCCO)ccc2N1C(=O)c1ccc2ccccc2n1 (stereo partly specified)	Follistatin-related protein 3 (Homo sapiens) (UniProt O95633)	criterion not met
COC(=O)[C@@]1(Cc2ccc(OC)cc2)[C@@H]2C(=CC(=O)[C@H]2CC(=O)C(=O)N(C)C)CN1C(=O)c1ccccc1	Follistatin-related protein 3 (Homo sapiens) (UniProt O95633)	criterion met
O=C1O[C@H](c2ccccc2)[C@H](c2ccccc2)N2[C@H]1[C@@H](C(=O)NC[C@H](O)c1ccccc1)[C@]1(C(=O)Nc3ccc(C#CCCO)cc31)[C@H]2c1ccc(OCCO)cc1	Follistatin-related protein 3 (Homo sapiens) (UniProt O95633)	criterion not met

Ask: Given CC(C)[Si](C#CCCCC#N)(O[C@H](c1ccccc1)c1cn([C@H](CO)Cc2ccccc2)nn1)C(C)C , state whether its composite z-score is at least 1.
Result: criterion met

Ask: Then what about the compound COCCOC(=O)N1C(=O)[C@@]2(c3cc(C#CCCO)ccc31)[C@H](C(=O)Nc1nc3ccccc3s1)[C@H]1C(=O)O[C@H](c3ccccc3)[C@H](c3ccccc3)N1[C@@H]2c1ccccc1OCCO ?
Result: criterion met

Ask: Then what about the compound [N-]=[N+]=Nc1ccccc1[C@@H]1OC(c2ccc(OCCCO)cc2)=N[C@]1(Cc1ccccc1)C(=O)NCC(O)CO (stereo partly specified) ?
Result: criterion not met

---

MEASUREMENT_TARGET: Epidermal growth factor receptor (Homo sapiens) (UniProt P00533)
Sequence (P00533 whole entry, looked up): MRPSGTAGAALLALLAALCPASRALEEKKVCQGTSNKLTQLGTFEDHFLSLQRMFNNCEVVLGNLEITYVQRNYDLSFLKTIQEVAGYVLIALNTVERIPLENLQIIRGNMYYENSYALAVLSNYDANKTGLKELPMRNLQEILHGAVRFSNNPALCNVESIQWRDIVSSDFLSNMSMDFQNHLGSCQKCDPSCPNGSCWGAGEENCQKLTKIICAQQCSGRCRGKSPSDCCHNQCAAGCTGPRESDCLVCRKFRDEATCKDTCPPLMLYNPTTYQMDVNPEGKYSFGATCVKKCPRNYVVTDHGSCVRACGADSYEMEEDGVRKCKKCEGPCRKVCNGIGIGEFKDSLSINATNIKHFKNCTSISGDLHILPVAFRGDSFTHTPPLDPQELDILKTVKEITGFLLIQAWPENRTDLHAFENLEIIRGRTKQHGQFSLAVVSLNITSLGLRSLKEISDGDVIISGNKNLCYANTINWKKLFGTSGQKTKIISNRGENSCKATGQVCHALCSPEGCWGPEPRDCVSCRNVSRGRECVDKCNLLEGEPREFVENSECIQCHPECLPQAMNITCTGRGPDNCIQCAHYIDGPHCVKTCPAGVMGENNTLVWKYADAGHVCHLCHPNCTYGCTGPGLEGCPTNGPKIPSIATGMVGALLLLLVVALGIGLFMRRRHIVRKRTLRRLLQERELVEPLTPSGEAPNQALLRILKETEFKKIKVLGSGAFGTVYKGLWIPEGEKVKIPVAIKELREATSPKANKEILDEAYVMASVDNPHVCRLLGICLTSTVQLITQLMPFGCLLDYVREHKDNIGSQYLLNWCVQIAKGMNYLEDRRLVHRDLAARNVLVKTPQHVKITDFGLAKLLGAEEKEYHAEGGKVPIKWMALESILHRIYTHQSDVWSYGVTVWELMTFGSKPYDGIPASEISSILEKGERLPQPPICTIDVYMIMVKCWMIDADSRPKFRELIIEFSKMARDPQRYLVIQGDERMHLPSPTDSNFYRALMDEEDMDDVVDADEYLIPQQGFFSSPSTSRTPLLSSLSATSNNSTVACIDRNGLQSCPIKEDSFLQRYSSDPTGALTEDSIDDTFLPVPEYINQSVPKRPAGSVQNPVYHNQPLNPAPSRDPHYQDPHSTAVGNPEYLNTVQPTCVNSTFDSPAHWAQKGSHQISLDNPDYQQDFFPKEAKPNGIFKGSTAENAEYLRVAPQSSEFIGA
PROCEDURE_DETAILS: EGFR binders on small-molecule microarrays, primary screen, biochemical, small-molecule microarray, 635 nm fluorescence (AID 1104);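 note: score merges 667 nm emission intensity with spot signal to noise over triplicate slides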
CONDITION_DETAILS: EGFR binding, higher = more signal
So I've got a bunch of molecules here, and I need their composite z-score values.
Give bare numbers.

Known results for molecules:
MOLECULE	MEASUREMENT_TARGET	composite z-score
COc1ccc([Si](C)(C)[C@@H]2[C@@H](CC(=O)N(CCO)Cc3ccccc3)O[C@]3(C(=O)N(Cc4cccc(N5C(=O)c6cccc7cccc5c67)c4)c4ccccc43)[C@H]2C)cc1	Epidermal growth factor receptor (Homo sapiens) (UniProt P00533)	0.412
CCOC(=O)C[C@H]1[C@H](OC(=O)c2cc3ccccc3oc2=O)[C@@H](NC(=O)c2ccc(-c3ccccc3)cc2)c2cc(OCCCO)ccc2N1C(=O)c1ccc2ccccc2n1	Epidermal growth factor receptor (Homo sapiens) (UniProt P00533)	0.622
O=C1c2ccccc2[C@](Cc2ccccc2I)(C(=O)NCC(F)(F)F)[C@H](c2ccc(CO)cc2)N1C1CCCCC1	Epidermal growth factor receptor (Homo sapiens) (UniProt P00533)	0.109
CN(C)c1ccc(C(O)C2C=CC3C(=O)N(c4ccccc4)C(=O)C3N2Nc2ccc([N+](=O)[O-])cc2)cc1 (configuration not stated)	Epidermal growth factor receptor (Homo sapiens) (UniProt P00533)	0.332
CN(C)CCCNC(=O)[C@@]1(C)c2ccccc2C(=O)N(Cc2ccccc2)[C@H]1c1ccc(CO)cc1	Epidermal growth factor receptor (Homo sapiens) (UniProt P00533)	-1.48

Please give composite z-score, item by item, for the list that follows.
1. [N-]=[N+]=NCc1ccccc1C[C@@]1(C(=O)N2CCOCC2)N=C(c2ccc(OCCCO)cc2)O[C@@H]1c1ccccc1
2. [N-]=[N+]=Nc1ccccc1[C@@H]1OC(c2ccc(OCCCO)cc2)=N[C@]1(Cc1ccccc1)C(=O)NCC(O)CO (some centres not stated)

Result:
1: 0.0805; 2: -0.433
